Task for the reader: assign each of the following molecules its reported pEC50.
Tested on: Nippostrongylus brasiliensis
procedure text: Anthelmintic activity against Nippostrongylus brasiliensis
Assay type: functional, organism-based
conditions: Nippostrongylus brasiliensis
pEC50 is defined as minus the log10 of a concentration measured in mol/L.

IN: What pEC50 value was documented for this molecule, `CCCSc1ccc2[nH]c(NC(=O)OC)nc2c1` ?
OUT: 6.47

IN: What about `COC(=O)Nc1nc2cc(Sc3ccccc3)ccc2[nH]1` ?
OUT: 6.92

IN: What about `c1ccc([C@H]2CN3CCSC3=N2)cc1` ?
OUT: 6.68
